Listed substances paired with reported MIC
Test system: A. baumannii 14B0097 (Acinetobacter sp., BCRC number 14B0097)
Condition Context: LYM broth, 50 mM NaCl; 16 h, 37 °C
Experimental Endpoint: MIC (µg/mL)

1. Ac-KWRKWLKWLAKKK-NH2 [Peptide W5K01] = 1.56
2. Ac-LKWLAKKKKWRKW-NH2 [Peptide W5K06] = 3.13
3. Ac-RKWLKWLAKKKKW-NH2 [Peptide W5K03] = 3.13
4. Ac-KKWRKWLKWLAKK-NH2 [W5K/A9W] = 1.56
5. Ac-LAKKKKWRKWLKW-NH2 [Peptide W5K09] = 3.13
6. Ac-KKKWRKWLKWLAK-NH2 [Peptide W5K12] = 1.56
7. Ac-WLKWLAKKKKWRK-NH2 [Peptide W5K05] = 3.13
8. Ac-WRKWLKWLAKKKK-NH2 [Peptide W5K02] = 1.56
9. Ac-WLAKKKKWRKWLK-NH2 [Peptide W5K08] = 6.25
10. Ac-KWLKWLAKKKKWR-NH2 [Peptide W5K04] = 3.13
11. Ac-AKKKKWRKWLKWL-NH2 [Peptide W5K10] = 1.56
12. Ac-KKKKWRKWLKWLA-NH2 [Peptide W5K11] = 1.56
13. Ac-KWLAKKKKWRKWL-NH2 [Peptide W5K07] = 6.25

---

Tested on: A. baumannii 14B0091 (Acinetobacter sp., BCRC number 14B0091)
Condition Context: LYM broth, pH 5.5
Listed substances paired with reported MIC
Experimental Endpoint: MIC (µg/mL)

1. Ac-AKKKKWRKWLKWL-NH2 [Peptide W5K10] = 1.56
2. Ac-LAKKKKWRKWLKW-NH2 [Peptide W5K09] = 3.13
3. Ac-WLAKKKKWRKWLK-NH2 [Peptide W5K08] = 3.13
4. Ac-RKWLKWLAKKKKW-NH2 [Peptide W5K03] = 3.13
5. Ac-KWRKWLKWLAKKK-NH2 [Peptide W5K01] = 1.56
6. Ac-KKWRKWLKWLAKK-NH2 [W5K/A9W] = 1.56
7. Ac-KWLKWLAKKKKWR-NH2 [Peptide W5K04] = 3.13
8. Ac-KKKKWRKWLKWLA-NH2 [Peptide W5K11] = 1.56
9. Ac-KKKWRKWLKWLAK-NH2 [Peptide W5K12] = 3.13
10. Ac-KWLAKKKKWRKWL-NH2 [Peptide W5K07] = 3.13
11. Ac-LKWLAKKKKWRKW-NH2 [Peptide W5K06] = 3.13
12. Ac-WRKWLKWLAKKKK-NH2 [Peptide W5K02] = 1.56
13. Ac-WLKWLAKKKKWRK-NH2 [Peptide W5K05] = 1.56

---

Test system: human red blood cells (hRBCs)
Assay Comment: Hemolytic activity assay
Assay type: cell-based
Condition Context: 200 μM peptide; hRBCs in PBS, 37 °C, 1 h; absorbance 565 nm; 100% = 1% Triton X-100
Experimental Endpoint: lysis of RBCs (hemolysis)

1. Ac-KWRKWLKWLAKKK-NH2 [Peptide W5K01] = ~25%
2. Ac-KKKWRKWLKWLAK-NH2 [Peptide W5K12] = ~30%
3. Ac-WRKWLKWLAKKKK-NH2 [Peptide W5K02] = ~34%
4. Ac-KKKKWRKWLKWLA-NH2 [Peptide W5K11] = ~27%

---

Listed substances paired with reported MIC
Test system: S. aureus ATCC 33591
Condition Context: LYM broth, 50 mM NaCl; 16 h, 37 °C
Experimental Endpoint: MIC (µg/mL)

1) Ac-WRKWLKWLAKKKK-NH2 [Peptide W5K02] = 6.25
2) Ac-LAKKKKWRKWLKW-NH2 [Peptide W5K09] = 25
3) Ac-AKKKKWRKWLKWL-NH2 [Peptide W5K10] = 6.25
4) Ac-KKWRKWLKWLAKK-NH2 [W5K/A9W] = 3.13
5) Ac-KWLAKKKKWRKWL-NH2 [Peptide W5K07] = 25
6) Ac-WLKWLAKKKKWRK-NH2 [Peptide W5K05] = 6.25
7) Ac-RKWLKWLAKKKKW-NH2 [Peptide W5K03] = 50
8) Ac-KKKKWRKWLKWLA-NH2 [Peptide W5K11] = 3.13
9) Ac-WLAKKKKWRKWLK-NH2 [Peptide W5K08] = 50
10) Ac-LKWLAKKKKWRKW-NH2 [Peptide W5K06] = 25
11) Ac-KKKWRKWLKWLAK-NH2 [Peptide W5K12] = 3.13
12) Ac-KWLKWLAKKKKWR-NH2 [Peptide W5K04] = 50
13) Ac-KWRKWLKWLAKKK-NH2 [Peptide W5K01] = 12.5

---

Tested on: Pseudomonas aeruginosa Migula (ATCC 27853)
Condition Context: LYM broth, 2.5 mM MgCl2
Experimental Endpoint: MIC (µg/mL)

1) Ac-WLKWLAKKKKWRK-NH2 [Peptide W5K05] = 6.25
2) Ac-KWRKWLKWLAKKK-NH2 [Peptide W5K01] = 12.5
3) Ac-KWLKWLAKKKKWR-NH2 [Peptide W5K04] = 12.5
4) Ac-LAKKKKWRKWLKW-NH2 [Peptide W5K09] = 12.5
5) Ac-KKWRKWLKWLAKK-NH2 [W5K/A9W] = 3.13
6) Ac-RKWLKWLAKKKKW-NH2 [Peptide W5K03] = 12.5
7) Ac-LKWLAKKKKWRKW-NH2 [Peptide W5K06] = 25
8) Ac-KKKKWRKWLKWLA-NH2 [Peptide W5K11] = 3.13
9) Ac-KWLAKKKKWRKWL-NH2 [Peptide W5K07] = 25
10) Ac-AKKKKWRKWLKWL-NH2 [Peptide W5K10] = 6.25
11) Ac-KKKWRKWLKWLAK-NH2 [Peptide W5K12] = 3.13
12) Ac-WRKWLKWLAKKKK-NH2 [Peptide W5K02] = 6.25
13) Ac-WLAKKKKWRKWLK-NH2 [Peptide W5K08] = 12.5

---

System: S. aureus ATCC 25923
Condition Context: LYM broth, 100 mM NaCl; 16 h, 37 °C
Experimental: The antibacterial and salt-resistant activity of the peptides was tested using Escherichia coli (ATCC 25922), Pseudomonas aeruginosa Migula (ATCC 27853), Acinetobacter sp. […] The inoculum concentrations were determined by measuring the optical density at 600 nm (OD 600 = 1, approximately 10^8 CFU/mL) using an Ultrospec 2100 pro UV-Visible spectrophotometer (Biochrom Ltd., Cambridge, UK) after 8 h of culture. […]
Listed substances paired with reported MIC
Experimental Endpoint: MIC (µg/mL)

1. Ac-RKWLKWLAKKKKW-NH2 [Peptide W5K03] = 25
2. Ac-KKWRKWLKWLAKK-NH2 [W5K/A9W] = 3.13
3. Ac-AKKKKWRKWLKWL-NH2 [Peptide W5K10] = 6.25
4. Ac-KKKWRKWLKWLAK-NH2 [Peptide W5K12] = 3.13
5. Ac-WRKWLKWLAKKKK-NH2 [Peptide W5K02] = 12.5
6. Ac-KWLAKKKKWRKWL-NH2 [Peptide W5K07] = 25
7. Ac-KKKKWRKWLKWLA-NH2 [Peptide W5K11] = 3.13
8. Ac-KWLKWLAKKKKWR-NH2 [Peptide W5K04] = 25
9. Ac-LAKKKKWRKWLKW-NH2 [Peptide W5K09] = 12.5
10. Ac-WLKWLAKKKKWRK-NH2 [Peptide W5K05] = 6.25
11. Ac-LKWLAKKKKWRKW-NH2 [Peptide W5K06] = 25
12. Ac-KWRKWLKWLAKKK-NH2 [Peptide W5K01] = 12.5
13. Ac-WLAKKKKWRKWLK-NH2 [Peptide W5K08] = 12.5

---

Test system: Escherichia coli (ATCC 25922)
Condition Context: LYM broth, pH 6.5
Listed substances paired with reported MIC
Experimental Endpoint: MIC (µg/mL)

1) Ac-WLAKKKKWRKWLK-NH2 [Peptide W5K08] = 3.13
2) Ac-KWLAKKKKWRKWL-NH2 [Peptide W5K07] = 6.25
3) Ac-LAKKKKWRKWLKW-NH2 [Peptide W5K09] = 3.13
4) Ac-RKWLKWLAKKKKW-NH2 [Peptide W5K03] = 3.13
5) Ac-KKWRKWLKWLAKK-NH2 [W5K/A9W] = 1.56
6) Ac-KWRKWLKWLAKKK-NH2 [Peptide W5K01] = 3.13
7) Ac-WLKWLAKKKKWRK-NH2 [Peptide W5K05] = 1.56
8) Ac-KKKKWRKWLKWLA-NH2 [Peptide W5K11] = 1.56
9) Ac-KKKWRKWLKWLAK-NH2 [Peptide W5K12] = 1.56
10) Ac-KWLKWLAKKKKWR-NH2 [Peptide W5K04] = 3.13
11) Ac-AKKKKWRKWLKWL-NH2 [Peptide W5K10] = 1.56
12) Ac-LKWLAKKKKWRKW-NH2 [Peptide W5K06] = 3.13
13) Ac-WRKWLKWLAKKKK-NH2 [Peptide W5K02] = 3.13
